System: human ovarian cancer cell line (SK-OV-3)
PROTOCOL_DESCRIPTION: SRB cytotoxicity evaluation, SK-OV-3
Assay type: cell-based
EXPERIMENTAL_CONDITIONS: SRB, SK-OV-3
pIC50: −log10 of the molar value.
QUANTITY_NAME: pIC50

[
  {
    "COMPOUND": "Cc1c2ccncc2c(C)c2c1[nH]c1ccccc12 [Ellipticin, reference compound]",
    "QUANTITY_NAME": "pIC50",
    "MEASURED": 5.83
  }
]

---

// IC50 lookup, one value per entry
Test system: human colon cancer cell line (HCT15)
PROTOCOL_DESCRIPTION: SRB cytotoxicity evaluation, HCT15
Type: cell-based
EXPERIMENTAL_CONDITIONS: Homo sapiens, HCT-15

[
  {
    "CHEMICAL_SMILES": "CCCCn1nc2c(n1)C(=O)c1cnncc1C2=O",
    "IC50": "18 nM"
  },
  {
    "CHEMICAL_SMILES": "CCCn1nc2c(n1)C(=O)c1cnncc1C2=O",
    "IC50": "18 nM"
  },
  {
    "CHEMICAL_SMILES": "Cn1nc2c(n1)C(=O)c1cnncc1C2=O",
    "IC50": "20 nM"
  },
  {
    "CHEMICAL_SMILES": "CCn1nnc2c1C(=O)c1cnncc1C2=O",
    "IC50": "39 nM"
  },
  {
    "CHEMICAL_SMILES": "Cn1nnc2c1C(=O)c1cnncc1C2=O",
    "IC50": "103 nM"
  },
  {
    "CHEMICAL_SMILES": "O=C1c2cnncc2C(=O)c2[nH]nnc21",
    "IC50": "> 10000 nM"
  }
]
